Ref: patent US20210070872A1

# tested_target: T1, purified recombinant human GITR protein (Example 1) (human, UniProt Q9Y5U5 26-162, limits assumed)
# T1 construct: also called Hu GITR recomb protein; immobilized huGITR
# T1 sequence: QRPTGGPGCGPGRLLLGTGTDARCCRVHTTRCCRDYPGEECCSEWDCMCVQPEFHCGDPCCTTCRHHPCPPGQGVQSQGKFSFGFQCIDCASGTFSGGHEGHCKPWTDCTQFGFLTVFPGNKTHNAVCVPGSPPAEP
# measurement_protocol: SPR (BIAcore), huGITR immobilized on CM5, antibody 6.25-100 nM
pKd values for the binders below.
Lab note — pKd values are minus log10 of concentrations in M.

mAb 231-1333-21 (murine) (antibody, mouse IgG1, V domains shown, Mouse IgG1 from hybridoma) VH: QVQLLQSGTELVRPGVSVKISCKGSGYTFTDYAMYWVKQSHAKSLEWIGVIRTYSGDVTYNQKFKDKATMTVDKSSSIAYMELARLSSEDSAIYYCAKSGTVRGFAYWGQGTLVTVSS VL: DIVMTQSPSSLTVTAGEKVIMSCKSSQSLLNSGNQKNYLTWYQQKPGQPPKLLIYWASTRESGVPDRFTGSGSGTDFTLTISSVQAEDLAVYHCQNDYSYPYTFGGGTKLEIK | 8.62
mAb 231-1042-7 (murine) (antibody, mouse IgG1, V domains shown, Mouse IgG1 from hybridoma) VH: QVQLLQSGTELVRPGVSVKISCKGSGYTFTDYAMYWVKQSHAKSLEWIGVIRTYSGDVTYNQKFKDKATMTVDKSSSIAYMELARLSSEDSAIYYCAKSGTVRGFAYWGQGTLVTVSS VL: DIVMTQSPSSLTVTAGEKVIMSCKSSQSLLNSGNQKNYLTWYQQKPGQPPKLLIYWASTRESGVPDRFTGSGSGTDFTLTISSVQAEDLAVYHCQNDYSYPYTFGGGTKLEIK | 8.63
mAb 231-32-15 (murine) (antibody, mouse IgG1, V domains shown, Mouse IgG1 from hybridoma; also called antibody 32-15) VH: QVQLLQSGTELVRPGVSVKISCKGSGYTFTDYAMYWVKQSHAKSLEWIGVIRTYSGDVTYNQKFKDKATMTVDKSSSIAYMELARLSSEDSAIYYCAKSGTVRGFAYWGQGTLVTVSS VL: DIVMTQSPSSLTVTAGEKVIMSCKSSQSLLNSGNQKNYLTWYQQKPGQPPKLLIYWASTRESGVPDRFTGSGSGTDFTLTISSVQAEDLAVYHCQNDYSYPYTFGGGTKLEIK | 8.61

// next item, pKd requested
*Q* Complete the entry with pKd for mAb 231-1039-45 (murine) (antibody, mouse IgG1, V domains shown, Mouse IgG1 from hybridoma) VH: QVQLLQSGTELVRPGVSVKISCKGSGYTFTDYAMYWVKQSHAKSLEWIGVIRTYSGDVTYNQKFKDKATMTVDKSSSIAYMELARLSSEDSAIYYCAKSGTVRGFAYWGQGTLVTVSS VL: DIVMTQSPSSLTVTAGEKVIMSCKSSQSLLNSGNQKNYLTWYQQKPGQPPKLLIYWASTRESGVPDRFTGSGSGTDFTLTISSVQAEDLAVYHCQNDYSYPYTFGGGTKLEIK
*A* 8.62
